assay overview: reduction of polyQ htt aggregates in cells – imaging, exon1htt(103Q)mCFP cells, high-content imaging, primary screen (AID 483);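 further: compound exposure lasted 3 days before fixation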
condition summary: exon1htt(103Q)mCFP cell line, aggregate imaging, at 2 µM
Activity calls are given as the source filed them.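 How the source made its calls: active means visual image review flags a hit and inhibition of aggregation exceeds 20%; inconclusive means visual hit but inhibition at or below 20%; inactive means no hit on visual image review.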
Assign a class; possible classes are active, inactive

### Prompt Per the records of this test, what outcome belongs to O=C(CSc1nnnn1C1CCCC1)NCc1ccc2c(c1)OCO2 ?
### Response inactive

### Prompt Lab log entry: O=C(C1CCN(S(=O)(=O)c2cccnc2)CC1)N1CCN(c2ccc(Cl)cc2)CC1 — outcome as called in the assay?
### Response inactive

### Prompt Field: outcome | Entry: CCOc1ccc(-c2nc(S(=O)(=O)c3ccccc3)c(NCc3cccnc3)o2)cc1
### Response inactive

### Prompt Could you check what this test reported for Cn1c(=O)c2c(nc(SCC(=O)N3CCCc4ccccc43)n2C)n(C)c1=O ?
### Response inactive

### Prompt Recorded test call requested for Cc1ccc(S(=O)(=O)CC(=O)N2CCCCCC2)cc1
### Response inactive

### Prompt Test call for this compound, please: CN1C(=O)C(O)(CC(=O)c2ccccc2O)c2cc(Br)ccc21 (stereo not given)
### Response inactive

### Prompt Call for entry O=C1c2ccccc2C(Nc2ccc(F)cc2F)N1CCN1CCOCC1 (stereo not given) :
### Response inactive

### Prompt Outcome? COc1cc(C2C(C#N)=C(N)OC3=C2C(=O)CC(C)(C)C3)ccc1OC(=O)N1CCOCC1 (stereo not given)
### Response inactive

### Prompt Record request — test call for CCCc1cc(C(=O)Nc2ccccc2C(=O)OC)no1
### Response inactive

### Prompt Recorded call for O=C(NCc1ccccn1)Nc1ccc2c(c1)OCO2 ?
### Response inactive

### Prompt Can you look up the reported call for Cc1cc(C)c(C)c(S(=O)(=O)Nc2ccc(O)cc2)c1C for me?
### Response active

Reference for the values: PubChem BioAssay
